Test system: MS2 coat protein
Assay: apparent KD of MS2 coat protein; designed switch direction (-1 OFF switch, 1 ON switch): -1; higher = weaker reporter binding
Conditions: Eterna round: R95; input ligand: none
metric: apparent KD of MS2 coat protein (nM)
One number for each entry, in nM.

Some solved entries appear below for comparison.
construct.sequence	reading.unit	reported.result
CUGGUCCGAGGAUAUAUUAAGUGAUACAUGAGGAUCACCCAUGUUAUUUAAUGGAUAUUAAUAGAAGGCGGACUAG [Mat - Exclusion 5 - JL mod - D77] (puzzle: Exclusion 5)	nM	25.5
UAUAAGCUAGGAUAUCGCUGAGUAAACAUGAGGAUCACCCAUGUGGACCAUGAUUGCCACCGAGAAGGAGCGGGAA [Aonat] (puzzle: Exclusion 5)	nM	56.8
GGUUGGCGAGGAUAUACAUGAGGAUCACCCAUGUGAGAGAAUAAGUGAGGAAAGAAAAGUAGAAGGCGCUGACG [Mat - Exclusion 3 - Mod of Salish D52] (puzzle: Exclusion 3)	nM	55.1
GAUUAUGCGAGCUUUAGGGACAUGAGGAUCACCCAUGUUCGUCUUGUUGAUCUAGGUACACUAACAUACCUAAAUCU [JMF 16] (puzzle: Sensor v3, turn-off variant 1)	nM	21.9

Here is the next item to consider.
Entry AAUACACAUGAGGAUCACCCAUGUUAGGAUAUUCGCGGGAAAGCUGUCAAAACGCCGAGGAGAAGGAACAGGAA [Excls1-X] (puzzle: Exclusion 1) ; apparent KD of MS2 coat protein = 45.7

* * *

System: MS2 coat protein
Experiment: apparent KD of MS2 coat protein; higher = weaker reporter binding
Conditions: Eterna round: R107; input ligand: theophylline 20 uM
Criterion: apparent KD of MS2 coat protein meeting or surpassing 50 nM. Met: met. Not met: not met.

construct.sequence	measured.on	assigned.class
CUAGAUGGAAACGUCUGGACGCACAAGCGACGAGGACCGGUACGGCCGCCACUCGAAGAGUGGUGGACAUGAGGAUCACCCAUGU [Design 4 MOD]	MS2 coat protein	met

Challenge: Decide: is the reported value of apparent KD of MS2 coat protein for UAUAUAGAUGGACGUCAUCUAGAUGCAGAAGGAGCGUAGGAAACUACAGGUAGGUCGCUGAGGUACAUGAGGAUCACCCAUGUAG [SSArg A #21 Slice of Pi] equal to or greater than 50 nM?
Response given: not met

Challenge: Decide: is the reported value of apparent KD of MS2 coat protein for UGAGAGGGCAGAAGGAGCGACAUGAGGAUCACCCAUGUCUCCCGUUAUGGGAGUUCUUUAGGUCAGGUAGGUCGCUGGCCUCUCA [#1 Exclusion - Arginine B Attempt #9 (Inspired by Omei)] equal to or greater than 50 nM?
Response given: met

Challenge: Decide: is the reported value of apparent KD of MS2 coat protein for AUCGUACCUGAUGAUACCAGCAUGUGAUCGUAACAUGAGGAUCACCCAUGUGAUCAGUGAUGCCCUUGGCAGCAUGAUCGGUACA [Same State - Theophylline B (Freestyle 15)] equal to or greater than 50 nM?
Response given: not met

Challenge: Decide: is the reported value of apparent KD of MS2 coat protein for GCUGUAAGUGCAGAUACCAGCAGGUGAUAUUUCAUAUGACAUGAGGAUCACCCAUGUAACUGCCCUUGGCAGCUGCACUUACAGC [SSTHB #9] equal to or greater than 50 nM?
Response given: met

Challenge: Decide: is the reported value of apparent KD of MS2 coat protein for AAGUGGCACGGAAGGAGCGAGUUUACCUAGAUAACAUGAGGAUCACCCAUGUAUAAUGGGACUCAGGUAGGUCGCCGCUGUCACU [#30 Same State - Arginine B] equal to or greater than 50 nM?
Response given: met

Challenge: Decide: is the reported value of apparent KD of MS2 coat protein for AGUUCCAGGUCGGCCGCCACUGGCAUGGCCGGUCCUCGGACUUACAUGAGGAUCACCCAUGUGAACAGGACCGGGACCGCAUGGG [Exclusion Tryptophan B GF 24] equal to or greater than 50 nM?
Response given: not met

Challenge: Decide: is the reported value of apparent KD of MS2 coat protein for ACAUGAGGAUCACCCAUGUCUGCCUCGGAUACCAGCGGAAGAAAACGCCCUUGGCAGCCGAACAUGAGGAUCACCCAUGUAGGCU [Same State Theophylline A GF30] equal to or greater than 50 nM?
Response given: met

Challenge: Decide: is the reported value of apparent KD of MS2 coat protein for AAAAUAAAAGGUGCAAAAUCCUAAUGUGAAGGAGCGCACGAAAGUGCAGGUAGGUCGCACAUGAGGAUCACCCAUGUAGCACCAA [ArgEX 4 #SwitchBubble] equal to or greater than 50 nM?
Response given: met

Challenge: Decide: is the reported value of apparent KD of MS2 coat protein for GGGCAAGGUGCCGCCUUCGCCCACUGAGAAGGAGCGCAGGGUACUGCAGGUAGGUCGCUCAGACAUGAGGAUCACCCAUGUAGGA [Esislees] equal to or greater than 50 nM?
Response given: met

Challenge: Decide: is the reported value of apparent KD of MS2 coat protein for AAGACAUGAGGAUCACCCAUGUCGUCUACACGAGGACCGGUACGGCCGCCACUCGUUUGCCAAUGAGCGCAUGCGGCCUGGGUAU [Exclusion Tryp A GF3] equal to or greater than 50 nM?
Response given: not met
